assay: Lipophilicity, log P of the compound; assay type: physicochemical; conditions: octanol/water
Provide the recorded logP for the entries that follow.

logP reported for this compound CC(C)(C)CN(C(=O)CCC(=O)N1CCCC(C(=O)O)C1)c1ccc(Cl)cc1C(O)c1cccc(F)c1Cl (stereo not drawn) : 3

logP recorded for this compound, CC(C)(C)CN(C(=O)CCC(=O)N1CCCC(C(=O)O)C1)c1ccc(Cl)cc1C(O)c1cccc2c1OCCO2 (stereo not drawn) , is 1.87

Entry COc1cccc(C(O)c2cc(Cl)ccc2N(CC(C)(C)C)C(=O)CCC(=O)N2CCCC(C(=O)O)C2)c1 (stereo not drawn) — recorded logP = 2.35

The measured logP associated with COc1cccc(C(O)c2cc(Cl)ccc2N(CC(C)(C)C)C(=O)CCC(=O)N2CCCC(C(=O)O)C2)c1OC (stereo not drawn) reads 2.25

logP for COc1ccccc1C(O)c1cc(Cl)ccc1N(CC(C)(C)C)C(=O)CCC(=O)N1CCCC(C(=O)O)C1 (stereo not drawn) is 2.81

According to the records, this compound CCOc1ccccc1C(O)c1cc(Cl)ccc1N(CC(C)(C)C)C(=O)CCC(=O)N1CCCC(C(=O)O)C1 (stereo not drawn) displays logP of 3.32

What the record says about CC(C)(C)CN(C(=O)CCC(=O)N1CCCC(C(=O)O)C1)c1ccc(Cl)cc1[C@H](O)c1ccccc1Cl (stereo partly drawn) : logP is 2.98

// recorded logP for CC(C)(C)CN(C(=O)CCC(=O)N1CCCC(C(=O)O)C1)c1ccc(Cl)cc1C(O)c1ccc(F)cc1Cl (stereo not drawn) : 3.28

###

Target protein (sequence): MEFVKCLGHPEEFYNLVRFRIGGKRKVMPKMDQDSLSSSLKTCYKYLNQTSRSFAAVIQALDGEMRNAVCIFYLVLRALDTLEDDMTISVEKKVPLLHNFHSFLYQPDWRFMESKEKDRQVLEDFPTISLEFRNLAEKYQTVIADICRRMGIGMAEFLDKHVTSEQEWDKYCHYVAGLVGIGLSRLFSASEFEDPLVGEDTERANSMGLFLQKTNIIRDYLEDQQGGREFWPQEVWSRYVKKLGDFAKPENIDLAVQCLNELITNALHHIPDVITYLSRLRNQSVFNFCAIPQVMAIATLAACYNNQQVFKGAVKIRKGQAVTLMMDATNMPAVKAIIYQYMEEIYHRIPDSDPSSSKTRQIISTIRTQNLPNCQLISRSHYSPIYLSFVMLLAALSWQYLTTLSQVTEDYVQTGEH
Assignment: determine reported pIC50 for the given molecules.
// returns pIC50 (minus log10 of molar concentration), number only

Entry CCOC(=O)C1CCCN(C(=O)CCC(=O)N(CC(C)(C)C)c2ccc(Cl)cc2C(O)c2cccc(OC)c2OC)C1 (stereo unspecified) , pIC50 reported as 8.89

get_value(item= CC(C)(C)CN(C(=O)CCC(=O)N1CCNCC1)c1ccc(Cl)cc1C(O)c1ccccc1Cl (stereo unspecified) , readout=pIC50) returns 5.68

pIC50 reported for this molecule CCOC(=O)C1CCN(C(=O)CCC(=O)N(CC(C)(C)C)c2ccc(Cl)cc2C(O)c2ccccc2OCC)CC1 (stereo unspecified) : 6.39

The value of pIC50 measured for the molecule CC(C)(C)CN(C(=O)CCC(=O)N1CCCC(C(=O)O)C1)c1ccc(Cl)cc1[C@H](O)c1ccccc1Cl (stereo partly specified) turned out to be 7.70

molecule CNC(=O)C1CCN(C(=O)CCC(=O)N(CC(C)(C)C)c2ccc(Cl)cc2C(O)c2ccccc2Cl)CC1 (stereo unspecified) , pIC50 observed: 8.89

Notebook: CCOC(=O)C1CCCN(C(=O)CCC(=O)N(CC(C)(C)C)c2ccc(Cl)cc2C(O)c2ccccc2Cl)C1 (stereo unspecified) , pIC50 read as 6.39

Value of measured pIC50 for the entry CC(C)(C)CN(C(=O)CCC(=O)N1CCC(C(N)=O)CC1)c1ccc(Cl)cc1C(O)c1ccccc1Cl (stereo unspecified) : 6.55

get_value(item= CCOC(=O)C1CCCN(C(=O)CCC(=O)N(CC(C)(C)C)c2ccc(Cl)cc2C(O)c2cccc(F)c2Cl)C1 (stereo unspecified) , readout=pIC50) returns 7.55

# pIC50 (molecule: CC(C)(C)CN(C(=O)CCC(=O)N1CCN(C(=O)OCc2ccccc2)CC1)c1ccc(Cl)cc1C(O)c1ccccc1Cl (stereo unspecified) ) is 8.96

Recorded result, CC(C)(C)CN(C(=O)CCC(=O)NCC1CCCCC1)c1ccc(Cl)cc1C(O)c1ccccc1Cl (stereo unspecified) , pIC50: 6.66
